assay: Atropisomer equilibrium and interconversion in solution; type: physicochemical; details: in solution at 37° C.; read-out: t½ of re-equilibration of separated atropisomers
Readout label: half-life

Challenge: Would you mind telling me what half-life value was observed for CC(C)(C#Cc1ccc(-c2ccc(Cl)c3c(NS(C)(=O)=O)nn(CC(F)(F)F)c23)c([C@H](Cc2cc(F)cc(F)c2)NC(=O)Cn2nc(C(F)(F)F)c3c2C(F)(F)[C@@H]2C[C@H]32)n1)S(C)(=O)=O [Compound 1] ?
Response given: 1 to 2 h
